Readings of neutralization EC90 for the listed binders
# test-target: BKV serotype II chimeric infectious virus (VP1 of isolate SB) (BK virus serotype II)
# measurement-protocol: cell-based or functional assay
// note: answer is a bare numeric in µg/mL

For orientation, consider the following solved cases.
Lab note: measured neutralization EC90 of P7G11A (antibody, human IgG1, lambda, V domains shown) VH: QVQLQESGPGLVKPSQTLSLTCTVSGGSISSGGYSWSWIRQPPGKGLEYIGYIYYRGTTYYNPSLKSRVTISVDTSNNQISLKLSSVTAADTAVYYCARALTHLVGVGWFDPWGQGTMVTVSS VL: QSVLTQPPSVSAAPGQKVTISCSGGSSNLGSNYVSWYQQLPGTAPKLLIYDNNKRPSGIPDRFSGSKSGTSATLGITGLQTGDEADYYCGTWDGSLSAWVFGGGTKVTVLG was 2.89

Lab note: measured neutralization EC90 of NEG447 (antibody, human IgG1, lambda, V domains shown) VH: QVQLQESGPGLVKPSETLSLTCTVSGGSISRDYWSWVRQPPGAGLEWIGNIYYSGSTNYNPSLKSRVTISVATNKKQFSLKLTSVTAADTAVYYCARVPGCSSTSCIDGWFDPWGQGILVTVSS VL: QSVLTQPPSLSAAPGQKVTISCSGSSSNIGNTYVSWYQQLPGTAPKLLIYDNNKRPSGIPDRFSGSKSGTSATLGITGLQTGDEAVYYCGTWDSSLSAWVFGGGTRLTVLG was 6.72

New cases:
Lab note: measured neutralization EC90 of P8D11A (antibody, V domains shown) VH: QVQLVESGGTLVQPGGSLRLSCAASGFTFSNYWMTWVRQAPGKGLEWVANIKKDGSEKYYVDSVRGRFTISRDNAKNSLFLQMNSLRPEDTAVYFCATVRSGRYFALDDWGQGTLVTVSS VL: QSVLTQPPSVSVAPGKTARITCGGDNIGSRPVHWYQQKPGQAPILVVYDDSNRPSGIPERFSGSNSGNTATLTISRVEAGDEADYYCQVWSSSTDHPFGGGTKVTVLG was 8.68

Lab note: measured neutralization EC90 of P7G11 (antibody, human IgG1, lambda, V domains shown) VH: QVQLQESGPGLAKPSQTLSLTCSVSGGSISSGGYSWSWIRQPPGKGLEYIGYIYYRGTTYYNPSLKSRITMSVDTSNNQISLKLTSVTAADTAVYYCARALTHLVGVGWFDPWGQGTMVTVSS VL: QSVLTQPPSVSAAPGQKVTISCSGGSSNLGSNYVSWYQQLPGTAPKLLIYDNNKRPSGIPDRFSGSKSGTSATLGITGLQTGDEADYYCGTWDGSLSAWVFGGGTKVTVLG was 1.79

Lab note: measured neutralization EC90 of NEG447A (antibody, human IgG1, lambda, V domains shown) VH: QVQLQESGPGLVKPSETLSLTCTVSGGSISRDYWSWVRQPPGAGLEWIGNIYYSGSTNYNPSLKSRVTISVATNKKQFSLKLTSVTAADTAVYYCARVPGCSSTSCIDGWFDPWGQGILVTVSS VL: QSVLTQPPSVSAAPGQKVTISCSGSSSNIGNTYVSWYQQLPGTAPKLLIYDNNKRPSGIPDRFSGSKSGTSATLGITGLQTGDEADYYCGTWDSSLSAWVFGGGTRLTVLG was 0.84
